assay: Therapeutic index (Ratio = ID50/ED50).
I'd appreciate it if you could supply selectivity ratio values for the items below.

# input compound: NCC1C=CC(n2ccc(N)nc2=O)O1 (stereo not drawn) ; wanted: its selectivity ratio
> 1.9

# input compound: Nc1ccn(C2CC3OCC3O2)c(=O)n1 (stereo not drawn) ; wanted: its selectivity ratio
> 1.2

# input compound: Cc1cn([C@H]2CC[C@@H](CO)O2)c(=O)[nH]c1=O ; wanted: its selectivity ratio
> 20
